These measurements were taken from patent US8778974B2.

property: melting point (°C)

Examples from the recorded data:
>>> df
                                   compound  numeric_result
0  CNC(=O)CCc1nc(Nc2ccc(F)c(C(F)(F)F)c2)nn1-c1cccc(OC)c1 [E42]           170.9
1  CNc1ncccc1-n1nc(Nc2cccc(OC(F)(F)F)c2)nc1CCC(=O)N(C)C [E6]           212.8
2  Cc1cc(-n2nc(Nc3cccc(C(F)(F)F)c3F)nc2CC(=O)NC2CC2)cc(C)n1 [E257]           244.4
3  Cc1ccc(-n2nc(Nc3cccc(OC(F)(F)F)c3)nc2CCC(=O)N(C)C)cn1 [E75]           174.3
4  Cc1cc(-n2nc(Nc3cc(F)c(F)c(F)c3)nc2C[C@H](C)O)cc(C)n1 [E208]           199.6
5  Cc1cc(-n2nc(Nc3ccc(F)c(F)c3)nc2CC(=O)NCC2CC2)c(C)cn1 [E166]           211.2
6  Cc1cc(-n2nc(Nc3ccc(F)c(F)c3)nc2CC(=O)NC2CC2)cc(C)n1 [E168]           279.3

[I] CCNC(=O)Cc1nc(Nc2cc(F)cc(Cl)c2)nn1-c1cc(C)nc(C)c1 [E246]
[II] CN(C)C(=O)CCc1nc(Nc2ccc3c(c2)OC(F)(F)O3)nn1-c1cccnc1Cl [E118]
Ask: From the recorded data, which exceeds the other in melting point: I or II ? Output the label that corresponds to your choice.
Result: I

====

This listing pairs compounds with measured Pam type.
- tested system: hα7-wt nAChR-expressing GH4Cl cells (Homo sapiens, UniProt P36544)
- Construct: expressed in transfected cells
- Sequence (P36544 23-502): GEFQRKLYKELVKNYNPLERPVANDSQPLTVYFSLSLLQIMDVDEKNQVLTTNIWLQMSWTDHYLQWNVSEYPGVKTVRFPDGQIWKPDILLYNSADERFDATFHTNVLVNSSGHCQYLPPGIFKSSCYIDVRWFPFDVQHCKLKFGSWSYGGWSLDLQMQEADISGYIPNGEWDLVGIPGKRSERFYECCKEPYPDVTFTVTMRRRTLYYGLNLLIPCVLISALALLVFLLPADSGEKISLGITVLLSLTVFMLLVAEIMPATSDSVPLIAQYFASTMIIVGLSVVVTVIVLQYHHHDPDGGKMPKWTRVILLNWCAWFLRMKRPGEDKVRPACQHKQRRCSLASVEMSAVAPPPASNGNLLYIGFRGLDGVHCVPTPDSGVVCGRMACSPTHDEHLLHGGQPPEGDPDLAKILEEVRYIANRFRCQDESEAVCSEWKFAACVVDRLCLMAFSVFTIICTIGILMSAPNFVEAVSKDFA
- run description: Patch-clamp current recording (whole-cell), potentiation of choline 1 mM response, PAM type
- Assay type: cell-based
- Parameters: key: Type 0 compounds minimally enhance the effect size of the current elicited by 1 mM choline.; Type 1 compounds enhance the effect size of the current elicited by 1 mM choline but minimally alter the kinetics of the receptor.; Type 2 compounds enhance the effect size of the current elicited by 1 mM choline while reducing the rate and/or the extent of desensitization.; Type 3 compounds enhance the effect size of the current elicited by 1 mM choline. When tested at higher concentrations up to 10 μM they completely inhibit desensitization, in particular a 1 mM choline application of 250 milliseconds.; Type 4 compounds allow for an initial desensitization of the receptor followed by a re-opening of the receptor during agonist application
- assay conditions: patch-clamp current recording, 1 mM choline
Note: the reply should be a number with no unit written.

In [3]: df
Out[3]:
                           structure_string  property  numeric_result
0  Cc1cc(-n2nc(Nc3ccc(F)c(F)c3F)nc2C[C@H](C)O)cc(C)n1  Pam type               2
1  Cc1cc(-n2nc(Nc3ccc4c(c3)OC(F)(F)O4)nc2CC(=O)NCC2CC2)c(C)cn1  Pam type               2
2  CC[C@@H](O)Cc1nc(Nc2cc(OC)cc(C(F)(F)F)c2)nn1-c1cc(C)nc(C)c1  Pam type               4

// switching to the query compound
Ask: // fetch Pam type; item: CNC(=O)CCc1nc(Nc2ccc(F)c(C(F)(F)F)c2)nn1-c1ccc2c(c1)OCCO2 ; system: hα7-wt nAChR-expressing GH4Cl cells (Homo sapiens, UniProt P36544)
Result: 4
